SUBJECT_OF_TEST: KAT2A (Homo sapiens)
Sequence (Q92830 whole entry): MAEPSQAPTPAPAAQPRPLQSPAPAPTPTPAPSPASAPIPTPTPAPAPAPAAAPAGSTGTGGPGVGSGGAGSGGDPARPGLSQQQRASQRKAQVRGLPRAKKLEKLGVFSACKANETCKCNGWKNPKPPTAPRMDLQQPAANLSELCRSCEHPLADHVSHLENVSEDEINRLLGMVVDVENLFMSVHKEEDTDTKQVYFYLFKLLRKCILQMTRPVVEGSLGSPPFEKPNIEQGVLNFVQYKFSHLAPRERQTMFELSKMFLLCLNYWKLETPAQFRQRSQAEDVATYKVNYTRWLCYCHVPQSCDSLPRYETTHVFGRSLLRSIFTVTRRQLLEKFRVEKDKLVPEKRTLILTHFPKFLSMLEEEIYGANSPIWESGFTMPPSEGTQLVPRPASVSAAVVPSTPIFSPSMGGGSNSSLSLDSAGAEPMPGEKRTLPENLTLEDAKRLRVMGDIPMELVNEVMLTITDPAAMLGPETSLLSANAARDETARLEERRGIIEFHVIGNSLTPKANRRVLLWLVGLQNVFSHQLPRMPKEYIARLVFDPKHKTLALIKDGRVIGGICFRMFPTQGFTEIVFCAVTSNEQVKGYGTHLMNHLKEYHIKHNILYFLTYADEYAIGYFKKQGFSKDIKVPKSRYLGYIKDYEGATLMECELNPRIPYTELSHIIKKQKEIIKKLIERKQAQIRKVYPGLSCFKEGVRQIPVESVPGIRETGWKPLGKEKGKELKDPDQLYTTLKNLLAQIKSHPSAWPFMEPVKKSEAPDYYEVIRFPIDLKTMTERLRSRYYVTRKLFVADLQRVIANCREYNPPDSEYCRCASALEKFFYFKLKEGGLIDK
TEST: KAT2A degradation, Western Blot (Jess), MOLM-13 cells
Type: cell-based
Parameters: degrader, Western blot
STUDY_CONDITIONS: MOLM-13 cells, KAT2A, 24 h, Western Blot, vs DMSO; read-out: KAT2A MOLM-13 DC50
This listing pairs compounds with measured DC50.

# COMPOUND, DC50
records = [
    ("CN1C[C@H](Nc2cnn(C)c(=O)c2Cl)C[C@H](c2ccc(CN3CCC4(CC3)CCN(c3cccc(C5CCC(=O)NC5=O)c3)CC4)cc2)C1 (stereo partly drawn)", "< 1 nM"),
    ("CN(Cc1ccc(Oc2cccc3c2C(=O)N(C2CCC(=O)NC2=O)C3=O)cc1)Cc1ccc([C@H]2C[C@@H](Nc3cnn(C)c(=O)c3Br)CN(C)C2)cc1 (stereo partly drawn)", "< 1 nM"),
    ("CN1C[C@H](Nc2cnn(C)c(=O)c2Cl)C[C@H](c2ccc(CN3CCC(c4cccc5c4CN(C4CCC(=O)NC4=O)C5=O)CC3)cc2)C1 (stereo partly drawn)", "> 30 nM"),
    ("CN1C[C@H](Nc2cnn(C)c(=O)c2Br)C[C@H](c2ccc(CN3CCN(Cc4ccc(Oc5cccc6c5C(=O)N(C5CCC(=O)NC5=O)C6=O)cc4)CC3)cc2)C1 (stereo partly drawn)", "< 1 nM"),
    ("CN1C[C@H](Nc2cnn(C)c(=O)c2Cl)C[C@H](c2ccc(C(=O)N3CCC4(CC3)CCN(c3cccc(C5CCC(=O)NC5=O)c3)CC4)cc2)C1 (stereo partly drawn)", "< 1 nM"),
]

Let us examine a further case.
Per the records, this compound ( CN1C[C@H](Nc2cnn(C)c(=O)c2Br)C[C@H](c2ccc(C(=O)N(C)c3cccc(Oc4cccc5c4C(=O)N(C4CCC(=O)NC4)C5=O)c3)cc2)C1 (stereo partly drawn) ) has DC50 equal to 1 to 30 nM

---

This listing pairs compounds with measured DC50.
SUBJECT_OF_TEST: KAT2A (Homo sapiens)
TEST: KAT2A degradation, Western Blot (Jess), NCI-H1048 cells
Type: cell-based
Parameters: degrader, Western blot (Jess)
STUDY_CONDITIONS: NCI-H1048 cells, KAT2A, 24 h, Western Blot, vs DMSO; read-out: KAT2A NCI-H1048 DC50

// solved cases for DC50 follow
# COMPOUND, REPORTED_ENDPOINT, RECORDED_MEASUREMENT
data = [
    ("CN1C[C@H](Nc2cnn(C)c(=O)c2Cl)C[C@H](c2ccc(C(=O)N3CCC4(CC3)CCN(c3ccc(C5CCC(=O)NC5=O)c(F)c3F)CC4)cc2)C1 (stereo partly drawn) [Compound 251]", "DC50", "< 1 nM"),
    ("Cc1c(N[C@@H]2C[C@H](c3ccc(CN4CCN(c5cccc(C6CCC(=O)NC6=O)c5)CC4)cc3)CN(C)C2)cnn(C)c1=O (stereo partly drawn) [Compound 187]", "DC50", "< 1 nM"),
    ("CN1C[C@H](Nc2cnn(C)c(=O)c2Cl)C[C@H](c2ccc(CN3CCN(c4cccc(C5CCC(=O)NC5=O)c4)CC3)cc2)C1 (stereo partly drawn) [Compound 162]", "DC50", "< 1 nM"),
    ("CN1C[C@H](Nc2cnn(C)c(=O)c2Br)C[C@H](c2ccc(C(=O)N3CCN(C4CCC(N5CCC(=O)NC5=O)CC4)CC3)cc2)C1 (stereo partly drawn) [Compound 204]", "DC50", "> 30 nM"),
    ("CN1C[C@H](Nc2cnn(C)c(=O)c2Cl)C[C@H](c2ccc(CN3CCN(c4ccc5cc(C6CCC(=O)NC6=O)cnc5c4)CC3)cc2)C1 (stereo partly drawn) [Compound 298]", "DC50", "< 1 nM"),
]

Per the records, this compound ( Cc1ncsc1-c1ccc(CNC(=O)[C@@H]2C[C@@H](O)CN2C(=O)[C@@H](NC(=O)CC2CCN(C(=O)c3ccc([C@H]4C[C@@H](Nc5cnn(C)c(=O)c5Br)CN(C)C4)cc3)CC2)C(C)(C)C)cc1 [Compound 411] ) has DC50 equal to > 30 nM

Per the records, this compound ( COc1cc(N2CCC3(CCN(C(=O)c4ccc([C@H]5C[C@@H](Nc6cnn(C)c(=O)c6Cl)CN(C)C5)cc4)CC3)CC2)c(C)cc1C1CCC(=O)NC1=O (stereo partly drawn) [Compound 285] ) has DC50 equal to < 1 nM

Per the records, this compound ( CN1C[C@H](Nc2cnn(C)c(=O)c2Br)C[C@H](c2ccc(COc3ccc4c(c3)C(=O)N(C3CCC(=O)NC3=O)C4=O)cc2)C1 (stereo partly drawn) [Compound 39] ) has DC50 equal to < 1 nM

Per the records, this compound ( CN1C[C@H](Nc2cnn(C)c(=O)c2Br)C[C@H](c2ccc(C(=O)N3CCC4(CCC(c5ccc(C6CCC(=O)NC6=O)cc5)CC4)CC3)cc2)C1 (stereo partly drawn) [Compound 326] ) has DC50 equal to < 1 nM

Per the records, this compound ( CN1C[C@H](Nc2cnn(C)c(=O)c2Cl)C[C@H](c2ccc(C(=O)N3CCC4(CC3)CCN(c3ccc5c(N6CCC(=O)NC6=O)nccc5c3)CC4)cc2)C1 [Compound 376] ) has DC50 equal to > 30 nM

Per the records, this compound ( CN1CC(Nc2cnn(C)c(=O)c2Cl)CC(c2ccc(CN3CCN(c4cccc(OC5CCC(=O)NC5=O)c4)CC3)cc2)C1 (stereo not drawn) [Compound 368] ) has DC50 equal to 1 to 30 nM

Per the records, this compound ( Cc1c(N[C@@H]2C[C@H](c3ccc(CN4CCC(c5cccc(C6CCC(=O)NC6=O)c5)C(F)(F)C4)cc3)CN(C)C2)cnn(C)c1=O (stereo partly drawn) [Compound 387] ) has DC50 equal to < 1 nM

---

SUBJECT_OF_TEST: UniProtKB Q92830
TEST: KAT2A degradation, Western Blot (Jess), NCI-H1048 cells
Type: cell-based
Set-up: degrader, Western blot (Jess)
STUDY_CONDITIONS: NCI-H1048 cells, KAT2A, 24 h, Western Blot, vs DMSO; read-out: KAT2A NCI-H1048 DC50
This listing pairs compounds with measured DC50.

// solved cases for DC50 follow
# COMPOUND, DC50
data = [
    ("CN1C[C@H](Nc2cnn(C)c(=O)c2Cl)C[C@H](c2ccc(C(=O)N3CCC4(CC3)CCN(c3ccc(C5CCC(=O)NC5=O)c(C(F)(F)F)c3)CC4)cc2)C1 (some centres unmarked)", "> 30 nM"),
    ("CN1C[C@H](Nc2cnn(C)c(=O)c2Br)C[C@H](c2ccc(C(=O)N3CCC4(CC3)CCN(c3ccc5c(N6CCC(=O)NC6=O)nccc5c3)CC4)cc2)C1", "< 1 nM"),
    ("CN1C[C@H](Nc2cnn(C)c(=O)c2Cl)C[C@H](c2ccc(C(=O)N3CCC(C#Cc4ccc(C5CCC(=O)NC5=O)cc4)CC3)cc2)C1 (some centres unmarked)", "< 1 nM"),
]

Per the records, this compound ( CN1C[C@H](Nc2cnn(C)c(=O)c2Br)C[C@H](c2ccc(CN3Cc4cc5c(cc4C3)C(=O)N(C3CCC(=O)NC3=O)C5=O)cc2)C1 (some centres unmarked) ) has DC50 equal to 1 to 30 nM

Per the records, this compound ( CN1C[C@H](Nc2cnn(C)c(=O)c2Cl)C[C@H](c2ccc(C(=O)N3CCC4(CC3)CCN(c3cc(C(F)(F)F)c(C5CCC(=O)NC5=O)cn3)CC4)cc2)C1 (some centres unmarked) ) has DC50 equal to > 30 nM

Per the records, this compound ( COc1cc(N2CCC3(CCN(C(=O)c4ccc([C@H]5C[C@@H](Nc6cnn(C)c(=O)c6Br)CN(C)C5)cc4)CC3)CC2)cc(F)c1C1CCC(=O)NC1=O (some centres unmarked) ) has DC50 equal to 1 to 30 nM

Per the records, this compound ( CN1C[C@H](Nc2cnn(C)c(=O)c2Br)C[C@H](c2ccc(CN3CC(c4cccc(C5CCC(=O)NC5=O)c4)C3)cc2)C1 (some centres unmarked) ) has DC50 equal to 1 to 30 nM

Per the records, this compound ( CN1C[C@H](Nc2cnn(C)c(=O)c2Br)C[C@H](c2ccc(C(=O)N3CCC(C#Cc4ccc(C5CCC(=O)NC5=O)cc4)CC3)cc2)C1 (some centres unmarked) ) has DC50 equal to < 1 nM

Per the records, this compound ( `CN1C[C@H](Nc2cnn(C)c(=O)c2Br)C[C@H](c2ccc(CN3CCN(c4cccc([C@H]5CCC(=O)NC5=O)c4)CC3)cc2)C1` ) has DC50 equal to < 1 nM

Per the records, this compound ( CN1C[C@H](Nc2cnn(C)c(=O)c2Cl)C[C@H](c2ccc(C(=O)N3CCC4(CC3)CCN(c3cc(F)c(C5CCC(=O)NC5=O)cc3F)CC4)cc2)C1 (some centres unmarked) ) has DC50 equal to < 1 nM

Per the records, this compound ( CN1C[C@H](Nc2cnn(C)c(=O)c2Br)C[C@H](c2ccc(CN3CCC(c4ccc5c(c4)C(=O)N(C4CCC(=O)NC4=O)C5=O)C(F)(F)C3)cc2)C1 (some centres unmarked) ) has DC50 equal to > 30 nM
